Test system: E28 (patient-derived glioblastoma stem cells of classical subtype)
method: surviving fraction (nuclei count normalised to DMSO); higher = more cells surviving (less toxic)
details: 12.3 nM; exposure time: 72 h
Structures can show the parent of a compound that is named as a salt.
Short version: surviving fraction at least 0.8 is 1, less is 0.

INSERT INTO measurements (compound, target_desc, label) VALUES
  ('C=C[C@H]1CN2CC[C@H]1C[C@@H]2[C@@H](O)c1ccnc2ccc(OC)cc12 [Quinidine hydrochloride monohydrate]', 'E28', 1),
  ('Clc1ccc(CSC(Cn2ccnc2)c2ccc(Cl)cc2Cl)cc1 (stereo not given) [Sulconazole nitrate]', 'E28', 1),
  ('COC(=O)Nc1nc2cc(C(=O)c3ccc(F)cc3)ccc2[nH]1', 'E28', 1),
  ('CO[C@H]1C(=O)[C@]2(C)[C@@H](OC)C[C@H]3OC[C@@]3(OC(C)=O)[C@H]2[C@H](OC(=O)c2ccccc2)[C@]2(O)C[C@H](OC(=O)[C@H](O)[C@@H](NC(=O)OC(C)(C)C)c3ccccc3)C(C)=C1C2(C)C', 'E28', 0),
  ('C=CC(=O)Nc1cccc(Oc2nc(Nc3ccc(N4CCN(C)CC4)cc3)nc3ccsc23)c1', 'E28', 1),
  ('OC(c1cc(C(F)(F)F)nc2c(C(F)(F)F)cccc12)C1CCCCN1 (stereo not given) [Mefloquine hydrochloride]', 'E28', 1),
  ('C[C@H]1Oc2cc(cnc2N)-c2c(nn(C)c2C#N)CN(C)C(=O)c2ccc(F)cc21', 'E28', 1),
  ('COc1cccc2c1C(=O)c1c(O)c3c(c(O)c1C2=O)C[C@@](O)(C(=O)CO)C[C@@H]3O[C@H]1C[C@H](N)[C@H](O)[C@H](C)O1 [Doxorubicin hydrochloride]', 'E28', 0),
  ('O=C(/C=C\n1cnc(-c2cc(C(F)(F)F)cc(C(F)(F)F)c2)n1)NNc1cnccn1 [Selinexor]', 'E28', 0);

* * *

System: E34 (patient-derived glioblastoma stem cells of proneural subtype)
method: phenotypic distance (Euclidean, principal components) from DMSO controls (arbitrary units); higher = stronger morphological change
details: 4.1 nM; exposure time: 72 h
Structures can show the parent of a compound that is named as a salt.
metric_name: phenotypic distance

INSERT INTO results (compound, target_desc, metric_name, measurement) VALUES
  ('C=C[C@H]1CN2CC[C@H]1C[C@@H]2[C@@H](O)c1ccnc2ccc(OC)cc12 [Quinidine hydrochloride monohydrate]', 'E34', 'phenotypic distance', 1.26),
  ('CN1C(=O)OC(C)(C)C1=O', 'E34', 'phenotypic distance', 0.536),
  ('CCn1c(-c2nonc2N)nc2cnc(Oc3cccc(NC(=O)c4ccc(OCCN5CCOCC5)cc4)c3)cc21', 'E34', 'phenotypic distance', 1.73),
  ('C#C[C@]1(O)CC[C@H]2[C@@H]3CCc4cc(OC5CCCC5)ccc4[C@H]3CC[C@@]21C', 'E34', 'phenotypic distance', 0.544);

* * *

Tested on: E28
method: surviving fraction (nuclei count normalised to DMSO); higher = more cells surviving (less toxic)
details: 333.333 nM; exposure time: 72 h
metric_name: surviving fraction

INSERT INTO assay_data (compound, target_desc, measurement) VALUES
  ('COC(=O)Nc1nc2cc(C(=O)c3cccs3)ccc2[nH]1 [Nocodazole]', 'E28', 0.428),
  ('C[C@@H](O)[C@H]1C(=O)N2C(C(=O)O)=C(S[C@@H]3CN[C@H](C(=O)N(C)C)C3)[C@H](C)[C@H]12 [Meropenem]', 'E28', 1.29),
  ('Cc1cc(C)c(CN2CCc3c(Cl)cc(-c4c(C)noc4C)c(Cl)c3C2=O)c(=O)[nH]1', 'E28', 1.17),
  ('Cc1ccc(NC(=O)c2ccc3c(c2)OCCO3)cc1NC(=O)c1ccc2nc(OCCN3CCCC3)ccc2c1', 'E28', 0.242),
  ('C/C=C(\C)C(=O)N[C@@H](c1ccccc1)[C@@H](O)C(=O)O[C@H]1C[C@@]2(O)[C@@H](OC(=O)c3ccccc3)[C@@H]3[C@]4(OC(C)=O)CO[C@@H]4C[C@H](O)[C@@]3(C)C(=O)[C@H](OC(C)=O)C(=C1C)C2(C)C [Cephalomannine]', 'E28', 0.302),
  ('Cc1[nH]nc(C(F)(F)F)c1Cc1sc2c(c1C(=O)N1C[C@](C)(O)CO1)c(=O)n(C)c(=O)n2C(C)C [AZD3965]', 'E28', 0.602);

* * *

Tested on: E21 (patient-derived glioblastoma stem cells of mesenchymal subtype)
method: phenotypic distance (Euclidean, principal components) from DMSO controls (arbitrary units); higher = stronger morphological change
details: 4.11523 nM; exposure time: 72 h
metric_name: phenotypic distance

INSERT INTO measurements (compound, metric_name, measurement) VALUES
  ('C/C=C(\C)C(=O)N[C@@H](c1ccccc1)[C@@H](O)C(=O)O[C@H]1C[C@@]2(O)[C@@H](OC(=O)c3ccccc3)[C@@H]3[C@]4(OC(C)=O)CO[C@@H]4C[C@H](O)[C@@]3(C)C(=O)[C@H](OC(C)=O)C(=C1C)C2(C)C [Cephalomannine]', 'phenotypic distance', 4.99),
  ('O=[N+]([O-])c1ccc2c(c1)S(=O)(=O)C=C2 [Stattic]', 'phenotypic distance', 1.03),
  ('Nc1ncn([C@@H]2O[C@H](CO)[C@@H](O)[C@H]2O)c(=O)n1 [5-azacytidine]', 'phenotypic distance', 1.24);

* * *

Recorded phenotypic distance by entry
System: E21
method: phenotypic distance (Euclidean, principal components) from DMSO controls (arbitrary units); higher = stronger morphological change
details: 3000 nM; exposure time: 72 h
Counter-ions that a name gives are not always drawn.
metric_name: phenotypic distance

INSERT INTO measurements (compound, target_desc, metric_name, measurement) VALUES
  ('O=C(CCBr)N1CCN(C(=O)CCBr)CC1', 'E21', 'phenotypic distance', 2.2),
  ('C/C=C(\C)C(=O)N[C@@H](c1ccccc1)[C@@H](O)C(=O)O[C@H]1C[C@@]2(O)[C@@H](OC(=O)c3ccccc3)[C@@H]3[C@]4(OC(C)=O)CO[C@@H]4C[C@H](O)[C@@]3(C)C(=O)[C@H](OC(C)=O)C(=C1C)C2(C)C', 'E21', 'phenotypic distance', 7.14),
  ('CN1C(=O)CC(c2ccccc2)C1=O (stereo unspecified) [Phensuximide]', 'E21', 'phenotypic distance', 0.387),
  ('CC[C@@]1(O)C(=O)OCc2c1cc1n(c2=O)Cc2cc3cc(O)ccc3nc2-1 [Hydroxy Camptothecine]', 'E21', 'phenotypic distance', 5.74),
  ('CCCCCCCCCCCCCCCC[N+](C)(C)CCN(Cc1ccc(OC)cc1)c1ncccn1 [Thonzonium bromide]', 'E21', 'phenotypic distance', 15.4),
  ('CN1C(=O)OC(C)(C)C1=O', 'E21', 'phenotypic distance', 0.461),
  ('COC(=O)[C@@H]1[C@H]2C[C@H]3c4[nH]c5ccccc5c4CCN3C[C@@H]2CC[C@@H]1O [Yohimbine hydrochloride]', 'E21', 'phenotypic distance', 0.417),
  ('Cc1cc(CN2CCN(c3c(Br)cnc4nc(-c5ccc(N6CCN(C)CC6)cc5)[nH]c34)CC2)no1', 'E21', 'phenotypic distance', 7.03),
  ('C[C@@H]1C[C@@H]([C@H](O)CC2CC(=O)NC(=O)C2)C(=O)[C@@H](C)C1 [Cycloheximide]', 'E21', 'phenotypic distance', 3.46),
  ('OC(c1cc(C(F)(F)F)nc2c(C(F)(F)F)cccc12)C1CCCCN1 (stereo unspecified) [Mefloquine hydrochloride]', 'E21', 'phenotypic distance', 1.05),
  ('COc1ccc([C@@H]2CC(=O)c3c(O)cc(O[C@@H]4O[C@H](CO[C@@H]5O[C@@H](C)[C@H](O)[C@@H](O)[C@H]5O)[C@@H](O)[C@H](O)[C@H]4O)cc3O2)cc1O', 'E21', 'phenotypic distance', 1.01),
  ('O=C(Oc1cccc2cccnc12)c1ccccc1', 'E21', 'phenotypic distance', 23.9),
  ('CC(C)C[C@H](NC(=O)[C@H](CCc1ccccc1)NC(=O)CN1CCOCC1)C(=O)N[C@@H](Cc1ccccc1)C(=O)N[C@@H](CC(C)C)C(=O)[C@@]1(C)CO1', 'E21', 'phenotypic distance', 17.1),
  ('Cc1c2ccncc2c(C)c2c1[nH]c1ccccc12', 'E21', 'phenotypic distance', 2.98),
  ('CC[N+](CC)(CC)CCOc1ccc(/C=C/c2ccccc2)cc1', 'E21', 'phenotypic distance', 2.84),
  ('CN(c1nccc(=O)[nH]1)C1CCN(c2nc3ccccc3n2Cc2ccc(F)cc2)CC1', 'E21', 'phenotypic distance', 0.543);

* * *

Tested on: E57 (patient-derived glioblastoma stem cells of mesenchymal subtype)
method: surviving fraction (nuclei count normalised to DMSO); higher = more cells surviving (less toxic)
details: 4.1 nM; exposure time: 72 h
Counter-ions that a name gives are not always drawn.
metric_name: surviving fraction

INSERT INTO results (molecule, measurement) VALUES
  ('Cc1c(-c2ccc(-c3ccccc3F)cc2)nc2ccc(F)cc2c1C(=O)O [Brequinar sodium salt hydrate]', 0.969),
  ('Oc1ccc(OCc2ccccc2)cc1', 1.07),
  ('CO[C@H]1C(=O)[C@]2(C)[C@@H](OC)C[C@H]3OC[C@@]3(OC(C)=O)[C@H]2[C@H](OC(=O)c2ccccc2)[C@]2(O)C[C@H](OC(=O)[C@H](O)[C@@H](NC(=O)OC(C)(C)C)c3ccccc3)C(C)=C1C2(C)C', 0.0988),
  ('CC1(C(=O)O)C2CCC(O2)C1(C)C(=O)O (stereo not drawn)', 0.985),
  ('CN1[C@@H]2CC[C@H]1CC(OC(=O)c1c[nH]c3ccccc13)C2 (stereo partly drawn) [3-Tropanyl-indole-3-carboxylate hydrochloride]', 0.904),
  ('N=C(N)c1ccc(-c2ccc(-c3ccc(C(=N)N)cc3)o2)cc1 [Furamidine dihydrochloride]', 0.99),
  ('Cn1ncnc1[C@H]1c2n[nH]c(=O)c3cc(F)cc(c23)N[C@@H]1c1ccc(F)cc1', 0.807),
  ('Cc1cc(C)c(CN2CCc3c(Cl)cc(-c4c(C)noc4C)c(Cl)c3C2=O)c(=O)[nH]1', 0.932);
